Origin of measurements: the DeepSol protein solubility set

# testProtocol: soluble on expression in E. coli; label from the status in PepcDB or PDB records
quantityKind: soluble on expression in E. coli

MSLPRLDARLKLVAAEIRGKIHADIGSDHGHLLAALLSADRIERGIAVENKLQPYRNSSATLERLNAEVRLGEGMDVIEENEIDSLSICGMGGQSIVRILSEHPNRLPKQLVLQPNQAIASVRQWARDNGYWLTDEKCTGTKRRFEVLVFSRFGPPHDPVYQKLNEVGLDESMGLMFGPWFLLRKDERLLQRLAEEQRYLQSKQNLTQTSRARVETIRRLLSSDHFLSREGHHHHHH	soluble
MTNLNYQQTHFVMSAPDIRHLPSDTGIEVAFAGRSNAGKSSALNTLTNQKSLARTSKTPGRTQLINLFEVADGKRLVDLPGYGYAEVPEEMKRKWQRALGEYLEKRQSLQGLVVLMDIRHPLKDLDQQMIEWAVDSNIAVLVLLTKADKLASGARKAQLNMVREAVLAFNGDVQVETFSSLKKQGVDKLRQKLDTWFSEMQPVEETQDGE	soluble
